The following compounds each carry a recorded IC50 for TACE (Homo sapiens, UniProt P78536).
Numbers only; they are read as nM.

# annotated cases, reported IC50 shown
CCCCN1CCC(C(=O)NO)(S(=O)(=O)c2ccc(Oc3ccc(Cl)cc3)cc2)CC1 [Example 251]	301
CCCCOc1ccc(S(=O)(=O)C2(C(=O)NO)CCN(Cc3ccc(OCCN4CCCCC4)cc3)CC2)cc1 [Example 242]	581
COc1ccc(S(=O)(=O)C(CCCCOc2ccccc2)(Cc2cccnc2)C(=O)NO)cc1 (centres unmarked) [Example 68]	522

For the record O=C(NO)C1(S(=O)(=O)c2ccc(OCc3ccccc3)cc2)CCN(Cc2ccccc2)CC1 [Example 241] , what value of IC50 is listed for TACE (Homo sapiens, UniProt P78536)?
277

Next record, please: CCCCOc1ccc(S(=O)(=O)C2(C(=O)NO)CCN(Cc3cccc(Oc4ccccc4)c3)CC2)cc1 [Example 265]
1040

Next: CCN1CCC(C(=O)NO)(S(=O)(=O)c2ccc(Oc3ccc(Cl)cc3)cc2)CC1 [Example 250]
413

Entry to check: CCCCOc1ccc(S(=O)(=O)C2(C(=O)NO)CCN(Cc3ccc(C#N)cc3)CC2)cc1 [Example 268]
278

And for COc1ccc(S(=O)(=O)C(CC=C(C)C)(CC=C(C)C)C(=O)NO)cc1 [Example 79] ?
805

----------
Where a name gives a salt, the structure may show the parent alone.
Measured melting point, listed per entry for reference.
Just the number please, in °C, no unit attached.

# example entries with known answers
CCCCOc1ccc(S(=O)(=O)C2(C(=O)NO)CCN(Cc3ccc(Cl)c(Cl)c3)CC2)cc1 (as salt: HCl)	256.8
Cc1ccc(CN2CCC(C(=O)NO)(S(=O)(=O)c3ccc(OCc4ccc(Cl)cc4)cc3)CC2)cc1 (as salt: HCl)	172
CC#CCC(Cc1cccnc1)(C(=O)NO)S(=O)(=O)c1ccc(F)cc1 (stereo not shown)	150
CCCCOc1ccc(S(=O)(=O)C2(C(=O)NO)CCN(CCCC)CC2)cc1	121
CCCCOc1ccc(S(=O)(=O)C2(C(=O)NO)CCN(Cc3ccc(OCCN4CCCCC4)cc3)CC2)cc1 (as salt: HCl)	155
CCCC(Cc1ccc(OCCN2CCOCC2)cc1)(C(=O)NO)S(=O)(=O)c1ccc(OC)cc1 (stereo not shown)	101
CCCCOc1ccc(S(=O)(=O)C2(C(=O)NO)CCN(Cc3cccc(OCCN4CCOCC4)c3)CC2)cc1 (as salt: HCl)	123
CCCCOc1ccc(S(=O)(=O)C2(C(=O)NO)CCN(C)CC2)cc1	118

Need melting point, item CCCCOc1ccc(S(=O)(=O)C2(C(=O)NO)CCN(Cc3ccncc3)CC2)cc1 (as salt: HCl)
118

Item: CN1CCC(C(=O)NO)(S(=O)(=O)c2ccc(OCc3ccc(Cl)cc3)cc2)CC1 (as salt: HCl)
117.8

----------
TARGET OR SYSTEM: TACE (Homo sapiens, UniProt P78536)
Construct: purchased Immunex
Sequence (P78536 215-824): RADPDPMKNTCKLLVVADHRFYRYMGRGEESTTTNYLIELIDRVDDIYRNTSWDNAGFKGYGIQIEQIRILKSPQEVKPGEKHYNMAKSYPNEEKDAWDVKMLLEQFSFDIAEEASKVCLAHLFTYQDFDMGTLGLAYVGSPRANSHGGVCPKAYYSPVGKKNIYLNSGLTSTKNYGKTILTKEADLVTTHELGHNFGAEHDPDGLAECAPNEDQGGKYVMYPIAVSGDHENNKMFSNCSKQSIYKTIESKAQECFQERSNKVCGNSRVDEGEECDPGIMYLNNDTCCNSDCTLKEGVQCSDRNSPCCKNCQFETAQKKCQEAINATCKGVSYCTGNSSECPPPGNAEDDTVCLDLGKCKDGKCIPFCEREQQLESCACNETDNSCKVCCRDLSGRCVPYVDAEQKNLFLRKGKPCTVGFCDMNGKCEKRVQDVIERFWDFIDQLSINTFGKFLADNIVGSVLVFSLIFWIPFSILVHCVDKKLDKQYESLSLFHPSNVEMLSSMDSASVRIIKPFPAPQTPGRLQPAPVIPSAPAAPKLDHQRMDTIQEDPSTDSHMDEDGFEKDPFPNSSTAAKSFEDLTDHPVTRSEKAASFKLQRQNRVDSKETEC
ASSAY PROCEDURE: Procedure for measuring TACE inhibition
Format: biochemical
CONDITION LABEL: read-out: TACE % inhibition at 10 micromolar (*)
Known inhibition at 10 µM of a selection of compounds
Response body: numeric value in %, unit text excluded.

Reference set, count: 3
CCCCOc1ccc(S(=O)(=O)C2(C(=O)NO)CCN(Cc3ccc(Cl)c(Cl)c3)CC2)cc1 [Example 263]	57.7
CCC(CC)COc1ccc(S(=O)(=O)C2(C(=O)NO)CCN(Cc3ccccc3)CC2)cc1 [Example 259]	39
CCCCN1CCC(C(=O)NO)(S(=O)(=O)c2ccc(OCCC(C)C)cc2)CC1 [Example 256]	43

Please look at the following compound next.
Fill blank: measured inhibition at 10 µM of the compound CCCCOc1ccc(S(=O)(=O)C2(C(=O)NO)CCN(CC)CC2)cc1 [Example 245] is ____.
52

----------
TARGET OR SYSTEM: MMP 9 (Homo sapiens)
Sequence (P14780 94-707): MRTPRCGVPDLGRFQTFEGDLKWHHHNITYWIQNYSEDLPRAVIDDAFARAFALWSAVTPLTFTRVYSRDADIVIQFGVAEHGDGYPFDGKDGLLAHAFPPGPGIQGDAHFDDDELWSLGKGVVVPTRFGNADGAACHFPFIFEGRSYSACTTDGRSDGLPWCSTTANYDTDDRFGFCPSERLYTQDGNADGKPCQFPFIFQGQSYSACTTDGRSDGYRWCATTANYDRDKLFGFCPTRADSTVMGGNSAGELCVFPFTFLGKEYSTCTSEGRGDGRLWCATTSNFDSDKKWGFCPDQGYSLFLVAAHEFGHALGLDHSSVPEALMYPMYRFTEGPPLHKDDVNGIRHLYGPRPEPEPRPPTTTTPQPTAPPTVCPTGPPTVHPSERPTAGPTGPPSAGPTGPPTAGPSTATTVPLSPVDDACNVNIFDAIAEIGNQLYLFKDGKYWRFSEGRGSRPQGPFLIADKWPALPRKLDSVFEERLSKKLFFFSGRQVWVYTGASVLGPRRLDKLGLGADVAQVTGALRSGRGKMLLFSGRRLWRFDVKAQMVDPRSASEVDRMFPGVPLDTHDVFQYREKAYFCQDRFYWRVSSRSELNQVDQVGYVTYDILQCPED
ASSAY PROCEDURE: In vitro gelatinase assay (human neutrophil gelatinase B)
CONDITION LABEL: read-out: MMP 9 IC 50
REPORTED ENDPOINT: pIC50
# log scale: pIC50 equals minus log10 of the concentration in mol/L

Field: example entries. Status: answers known.
CCCCOc1ccc(S(=O)(=O)C2(C(=O)NO)CCN(C)CC2)cc1	8.01
CCCCOc1ccc(S(=O)(=O)C2(C(=O)NO)CCN(Cc3ccc(C)cc3)CC2)cc1	8.27
O=C(NO)C1(S(=O)(=O)c2ccc(Oc3ccc(Cl)cc3)cc2)CCN(Cc2ccccc2)CC1	8.96

# pIC50 lookup, item O=C(NO)C1(S(=O)(=O)c2ccc(OCc3ccccc3)cc2)CCN(Cc2ccccc2)CC1
8.57

Another molecule: CCCCOc1ccc(S(=O)(=O)C2(C(=O)NO)CCN(Cc3cccc(Oc4ccccc4)c3)CC2)cc1
8.03

Next record, please: CCCCOc1ccc(S(=O)(=O)C2(C(=O)NO)CCN(CC)CC2)cc1
7.36

CCCCOc1ccc(S(=O)(=O)C2(C(=O)NO)CCN(Cc3ccc(C#N)cc3)CC2)cc1 ?
8.55

Could you do the same for COc1ccc(S(=O)(=O)C(CC=C(C)C)(CC=C(C)C)C(=O)NO)cc1 , please?
9.27

----------
In what follows, each item is paired with its IC50 for MMP 13 (Homo sapiens).
Express your answer in nM, writing the number without its unit.

Look over these answered cases.
CCCCOc1ccc(S(=O)(=O)C2(C(=O)NO)CCN(CC)CC2)cc1 [Example 245]	2.2
CCCCOc1ccc(S(=O)(=O)C2(C(=O)NO)CCN(Cc3cccc(Oc4ccccc4)c3)CC2)cc1 [Example 265]	7.8
COc1ccc(SC(C)(Cc2ccccc2)C(=O)NO)cc1 (stereo not shown) [Example 1]	193

Turning now to a further record.
Which value of IC50 has been reported for Cc1ccc(CN2CCC(C(=O)NO)(S(=O)(=O)c3ccc(OCc4ccc(Cl)cc4)cc3)CC2)cc1 [Example 266] in the records?
5.7

----------
TARGET OR SYSTEM: MMP 13 (Homo sapiens)
ASSAY PROCEDURE: MMP 13 inhibition (HTS)
Assay type: biochemical
CONDITION LABEL: 0.2 μM
Label 1 (yes) when MMP 13 % inhibition at 0.2 μM (HTS) >= 70%; otherwise 0 (no).

O=C(CCC(C(=O)NO)S(=O)(=O)c1ccccc1C(F)(F)F)NO (centres unmarked)	0 (no)

Evaluate O=C(CCC(C(=O)NO)[S+]([O-])c1ccccc1C(F)(F)F)NO (centres unmarked) : MMP 13 % inhibition at 0.2 μM (HTS) at minimum 70%?
0 (no)

Another molecule to check: C[S+]([O-])c1ccc([S+]([O-])C(COCc2ccccc2)C(=O)NO)cc1 (centres unmarked)
1 (yes)

Queued: O=C(CCC(C(=O)NO)[S+]([O-])c1ccc(Br)cc1)NO (centres unmarked)
1 (yes)

What about CCCCCCC(C(=O)NO)S(=O)(=O)c1cccc(OC)c1 (centres unmarked) ?
1 (yes)

----------
Where a name gives a salt, the structure may show the parent alone.
REPORTED ENDPOINT: melting point (°C)
# value in °C; strip the unit string

Can you look up the measured melting point of CCCCOc1ccc(S(=O)(=O)C2(C(=O)NO)CCN(Cc3ccc(C#N)cc3)CC2)cc1 (as salt: HCl) [Example 268] for me?
241.6

Also CCCCOc1ccc(S(=O)(=O)C2(C(=O)NO)CCN(Cc3cccc(OC)c3)CC2)cc1 (as salt: HCl) [Example 260] ?
137

Follow-up item: COc1ccc(S(=O)(=O)C2(C(=O)NO)CCN(Cc3ccc(-c4ccccn4)cc3)CC2)cc1 (as salt: HCl) [Example 262]
214

Next: CCCCOc1ccc(S(=O)(=O)C2(C(=O)NO)CCN(Cc3ccc(C)cc3)CC2)cc1 (as salt: HCl) [Example 267]
137

Note, next up: O=C(NO)C1(S(=O)(=O)c2ccc(OCc3ccccc3)cc2)CCN(Cc2ccccc2)CC1 [Example 241]
89

Also check CN1CCC(C(=O)NO)(S(=O)(=O)c2ccc(Oc3ccc(Cl)cc3)cc2)CC1 (as salt: HCl) [Example 249]
52

----------
TARGET OR SYSTEM: TACE (Homo sapiens, UniProt P78536)
Construct: purchased Immunex
ASSAY PROCEDURE: Procedure for measuring TACE inhibition
Format: biochemical
CONDITION LABEL: 1 micromolar
Measured TACE % inhibition at 1 micromolar, listed per entry.
Give the quantity in %, number only.

Record excerpt, results attached:
CC#CCC(CC#CC)(C(=O)NO)S(=O)(=O)c1ccc(OC)cc1 [Example 72]	51.64
COc1ccc(SC(C)(Cc2ccccc2)C(=O)NO)cc1 (stereo not shown) [Example 1]	31.62
COc1ccc(S(=O)(=O)C(Cc2ccccc2)C(=O)NO)cc1 (stereo not shown) [Example 9]	20.30
COc1ccc(S(=O)(=O)C2(C(=O)NO)CCN(CCCOc3ccccc3)CC2)cc1 [Example 105]	50.2
COc1ccc([S+]([O-])C(C)(Cc2ccccc2)C(=O)NO)cc1 (stereo not shown) [Example 5]	25

State the recorded TACE % inhibition at 1 micromolar for this entry: COc1ccc(S(=O)(=O)C(C)(Cc2ccc(OCCCN3CCN(c4cccc(Cl)c4)CC3)cc2)C(=O)NO)cc1 (stereo not shown) [Example 23]
40.6

One more molecule: CCCCCC#CCC(CC#CCCCCC)(C(=O)NO)S(=O)(=O)c1ccc(OC)cc1 [Example 71]
42.21

Now the molecule C#CCC(CC#C)(C(=O)NO)S(=O)(=O)c1ccc(OC)cc1 [Example 73]
20.17

Consider next the molecule COc1ccc(S(=O)(=O)C(C)(Cc2ccc(OCCN(C(C)C)C(C)C)cc2)C(=O)NO)cc1 (stereo not shown) [Example 20] in the same way.
31

Same question for COc1ccc(S(=O)(=O)C(C)(Cc2cccc(OCCN3CCOCC3)c2)C(=O)NO)cc1 (stereo not shown) [Example 30] please.
25.2
